measuredTarget: recombinant ASK1 (Homo sapiens, UniProt Q99683)
Construct: purchased Carna Biosciences
Sequence (Q99683 654-971 limits assumed): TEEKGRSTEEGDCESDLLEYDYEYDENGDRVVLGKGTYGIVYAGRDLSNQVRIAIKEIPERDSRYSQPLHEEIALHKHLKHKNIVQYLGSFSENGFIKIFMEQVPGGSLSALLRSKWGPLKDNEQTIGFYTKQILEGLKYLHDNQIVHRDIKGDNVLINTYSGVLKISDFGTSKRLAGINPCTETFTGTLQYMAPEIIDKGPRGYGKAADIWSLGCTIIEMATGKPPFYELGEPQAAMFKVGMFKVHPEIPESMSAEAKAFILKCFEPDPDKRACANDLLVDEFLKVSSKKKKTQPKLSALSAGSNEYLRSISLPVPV
assayOverview: ASK1 Biochemical Assay (HTRF KinEASE-STK S3)
conditionDescription: ATP 100 μM; read-out: Biochemical Assay IC50
Method: ASK1 biochemical assay was standardized using recombinant ASK1 (Carna Biosciences), substrate and detection reagents from Cisbio HRTF KinEASE-STK S3 kit. Enzyme concentration, ATP, biotinylated STK substrate and STK antibodies were titrated for enzyme assay. […] Delta F ratios were calculated from data obtained at excitation (337 nm) and emission wavelengths (665 nm and 620-10 nm). […] Enzyme inhibition by compounds were calculated from vehicle controls, which represent uninterrupted enzyme's activity.
pIC50: −log10 of the molar value.
readoutKind: pIC50

compound: COc1ccc(-c2ccc(S(C)(=O)=O)nc2)cc1N1CCN(c2cccc(-c3nncn3C(C)C)n2)C1=O
measuredTarget: recombinant ASK1 (Homo sapiens, UniProt Q99683)
readoutKind: pIC50
valueMeasured: < 7.00

Indicate the recorded pIC50 value for this compound: CC(C)n1cnnc1-c1cccc(N2CCN(c3ccc(N4CCC(O)CC4)nc3)C2=O)n1
< 7.00

Indicate the recorded pIC50 value for this compound: CNC(=O)[C@@H]1CCN(c2ccc(N3CCN(c4cccc(-c5nncn5C(C)C)n4)C3=O)cc2)C1
> 7.30

Indicate the recorded pIC50 value for this compound: CC(C)n1cnnc1-c1cccc(N2CCN(c3ccc(N(C)C)cc3)C2=O)n1
> 7.00

Indicate the recorded pIC50 value for this compound: CC(C)n1cnnc1-c1cccc(N2CCN(c3ccc(N4CCN(C)C(=O)C4)cc3)C2=O)n1
> 7.00

Indicate the recorded pIC50 value for this compound: CC(C)n1cnnc1-c1ccc(N2CCN(c3ccc(S(C)(=O)=O)cc3)C2=O)nc1
< 7.00

Indicate the recorded pIC50 value for this compound: COc1cc(S(C)(=O)=O)c(C)cc1N1CCN(c2cccc(-c3nncn3C(C)C)n2)C1=O
> 7.00

Indicate the recorded pIC50 value for this compound: CC(C)n1cnnc1-c1cccc(N2CCN(c3ccc(S(C)(=O)=O)s3)C2=O)n1
< 7.00

Indicate the recorded pIC50 value for this compound: CC1CN(c2ccc(N3CCN(c4cccc(-c5nncn5C(C)C)n4)C3=O)cc2)CCO1 (stereo not shown)
> 7.00

Indicate the recorded pIC50 value for this compound: CC1COCC(=O)N1c1ccc(N2CCN(c3cccc(-c4nncn4C(C)C)n3)C2=O)cc1 (stereo not shown)
> 7.00

Indicate the recorded pIC50 value for this compound: CC(C)n1cnnc1-c1cccc(N2CCN(c3ccc(S(C)(=O)=O)c(N4CCCC4)c3)C2=O)n1
< 7.00

Indicate the recorded pIC50 value for this compound: CC(C)n1cnnc1-c1cccc(N2CCN(c3ccc(NS(C)(=O)=O)cc3)C2=O)n1
> 7.00

Indicate the recorded pIC50 value for this compound: CC(C)n1cnnc1-c1cccc(N2CCN(c3cccc(-c4ccncc4)c3)C2=O)n1
> 6.00

Indicate the recorded pIC50 value for this compound: CC(C)n1cnnc1-c1cccc(N2CCN(c3ccc(S(N)(=O)=O)cc3)C2=O)n1
> 7.00

Indicate the recorded pIC50 value for this compound: CC(C)n1cnnc1-c1cccc(N2CCN(c3ccc(C(O)C4CC4)cc3)C2=O)n1 (stereo not shown)
> 7.00

Indicate the recorded pIC50 value for this compound: CC(C)n1cnnc1-c1cccc(N2CCN(c3ccc(C(=O)NC4CC4)cc3)C2=O)n1
> 7.00
